tested on: S. aureus 209PJC; assay: Bactericidal activity test (MBC, phenol coefficient measuring method); type: cell-based; conditions: 5 min

- molecule: "CC(=O)O.CCCCCCCCCNC1=NC(C)(C)N=C(NCCc2ccccc2)N1"
  minimal bactericidal concentration (MBC) (µg/mL): 6.3
- molecule: "CCCCCCCCCCNC1=NC(C)(C)N=C(NCCc2ccc(OC)cc2)N1.Cl"
  minimal bactericidal concentration (MBC) (µg/mL): 6.3
- molecule: "CC(=O)O.CCCCCCCNC1=NC(C)(C)N=C(NCCCCCCC)N1"
  minimal bactericidal concentration (MBC) (µg/mL): 3.1
- molecule: "CC(=O)O.CCCCCCCCNC1=NC(C)(C)N=C(Nc2cnc3ccccc3c2)N1"
  minimal bactericidal concentration (MBC) (µg/mL): 6.3
- molecule: "N=C(NCCCCCCNC(=N)NC(=N)Nc1ccc(Cl)cc1)NC(=N)Nc1ccc(Cl)cc1.O=C(O)[C@H](O)[C@@H](O)[C@H](O)[C@H](O)CO.O=C(O)[C@H](O)[C@@H](O)[C@H](O)[C@H](O)CO [Control drug, chlorhexidine gluconate, reference compound]"
  minimal bactericidal concentration (MBC) (µg/mL): 62.5
- molecule: "CCCCCCCCCCNC1=NC(C)(C)N=C(NCc2ccc(OC)cc2)N1.CS(=O)(=O)O"
  minimal bactericidal concentration (MBC) (µg/mL): 3.1
- molecule: "CCCCCCCCCCCCC1N=C(N)NC(NCCc2ccc(OC)cc2)=N1.Cl (racemic)"
  minimal bactericidal concentration (MBC) (µg/mL): 3.1
- molecule: "Br.CCCCCCCCCNC1=NC(C)(C)N=C(NCc2ccccc2)N1"
  minimal bactericidal concentration (MBC) (µg/mL): 6.3
- molecule: "CC(=O)O.CCCCCCCCCNC1=NC(C)(C)N=C(NCc2ccccc2)N1"
  minimal bactericidal concentration (MBC) (µg/mL): 6.3

----------
system: P. aeruginosa KM 97-5; assay: Bactericidal activity test (MBC, phenol coefficient measuring method); format: cell-based; details: 3 min
value type: minimal bactericidal concentration (MBC) (µg/mL)

- compound: "CC(=O)O.CCCCCCCCNC1=NC(C)(C)N=C(NCc2ccc(C)cc2)N1 [compound 58]"
  endpoint unit: "µg/mL"
  readout number: 3.1
- compound: "CC(=O)O.CCCCCCCCCNC1=NC(C)(C)N=C(NCc2ccccc2)N1 [compound 48]"
  endpoint unit: "µg/mL"
  readout number: 3.1
- compound: "N=C(NCCCCCCNC(=N)NC(=N)Nc1ccc(Cl)cc1)NC(=N)Nc1ccc(Cl)cc1.O=C(O)[C@H](O)[C@@H](O)[C@H](O)[C@H](O)CO.O=C(O)[C@H](O)[C@@H](O)[C@H](O)[C@H](O)CO [Control drug, chlorhexidine gluconate, reference compound]"
  endpoint unit: "µg/mL"
  readout number: 16
- compound: "CC(=O)O.CCCCCCCCNC1=NC(C)(C)N=C(NCCCCCC)N1 [compound 68]"
  endpoint unit: "µg/mL"
  readout number: 6.3

----------
test system: E. coli NIHJ JC-2; assay: Antibacterial activity test (MIC); assay type: cell-based; details: Mueller-Hinton Broth, 37° C., 20 to 24 hours

- molecule: "CCCCCCCCC1N=C(N)N=C(N)N1c1ccc(OC(F)(F)F)cc1.Cl (stereo not drawn)"
  minimal inhibitory concentration (MIC): "50 µg/mL"
- molecule: "CCCCCCCCNC1=NC(C)(C)N=C(NCc2ccc(O)cc2)N1.Cl"
  minimal inhibitory concentration (MIC): "25 µg/mL"
- molecule: "CC(=O)O.CCCCCCCCNC1=NC(C)(C)N=C(NCCCCCC)N1"
  minimal inhibitory concentration (MIC): "12.5 µg/mL"
- molecule: "CCCCCCCCCCNC1=NC(C)(C)N=C(NCc2ccccc2)N1.O=C(O)CC(=O)O"
  minimal inhibitory concentration (MIC): "6.3 µg/mL"
- molecule: "CC(=O)O.CCCCCCCCCNC1=NC(C)(C)N=C(NCCc2ccccc2)N1"
  minimal inhibitory concentration (MIC): "12.5 µg/mL"
- molecule: "CCCCCCCCCNC1=NC(C)(C)N(c2ccccc2)C(N)=N1.Cl"
  minimal inhibitory concentration (MIC): ">100 µg/mL"
- molecule: "CCCCCCCCCCCC1N=C(N)NC(NCc2ccc(C(F)(F)F)cc2)=N1.Cl (stereo not drawn)"
  minimal inhibitory concentration (MIC): "50 µg/mL"
- molecule: "CCCCCCCCCCNC1=NC(C)(C)N=C(NCc2ccc(OC)cc2)N1.O=C(O)C(=O)O"
  minimal inhibitory concentration (MIC): "25 µg/mL"
- molecule: "CC(=O)O.CCCCCCCCNC1=NC(C)(C)N=C(NCc2ccccc2)N1"
  minimal inhibitory concentration (MIC): "12.5 µg/mL"
